Target: UniProt P11716
Assay: intracellular calcium assay in HEK […] stable cell line
Format: cell-based
Design: full-length rabbit RyR1
metric_name: EC50
Provide the measurement as a number trailed by its unit.

Dear colleague, I am looking for the recorded EC50 of the following molecule: FC(F)(F)C(Cl)Br (stereo not shown) 288 µM

* * *

Target: type 1 ryanodine receptor (RyR1) (Oryctolagus cuniculus)
Sequence (P11716 whole entry): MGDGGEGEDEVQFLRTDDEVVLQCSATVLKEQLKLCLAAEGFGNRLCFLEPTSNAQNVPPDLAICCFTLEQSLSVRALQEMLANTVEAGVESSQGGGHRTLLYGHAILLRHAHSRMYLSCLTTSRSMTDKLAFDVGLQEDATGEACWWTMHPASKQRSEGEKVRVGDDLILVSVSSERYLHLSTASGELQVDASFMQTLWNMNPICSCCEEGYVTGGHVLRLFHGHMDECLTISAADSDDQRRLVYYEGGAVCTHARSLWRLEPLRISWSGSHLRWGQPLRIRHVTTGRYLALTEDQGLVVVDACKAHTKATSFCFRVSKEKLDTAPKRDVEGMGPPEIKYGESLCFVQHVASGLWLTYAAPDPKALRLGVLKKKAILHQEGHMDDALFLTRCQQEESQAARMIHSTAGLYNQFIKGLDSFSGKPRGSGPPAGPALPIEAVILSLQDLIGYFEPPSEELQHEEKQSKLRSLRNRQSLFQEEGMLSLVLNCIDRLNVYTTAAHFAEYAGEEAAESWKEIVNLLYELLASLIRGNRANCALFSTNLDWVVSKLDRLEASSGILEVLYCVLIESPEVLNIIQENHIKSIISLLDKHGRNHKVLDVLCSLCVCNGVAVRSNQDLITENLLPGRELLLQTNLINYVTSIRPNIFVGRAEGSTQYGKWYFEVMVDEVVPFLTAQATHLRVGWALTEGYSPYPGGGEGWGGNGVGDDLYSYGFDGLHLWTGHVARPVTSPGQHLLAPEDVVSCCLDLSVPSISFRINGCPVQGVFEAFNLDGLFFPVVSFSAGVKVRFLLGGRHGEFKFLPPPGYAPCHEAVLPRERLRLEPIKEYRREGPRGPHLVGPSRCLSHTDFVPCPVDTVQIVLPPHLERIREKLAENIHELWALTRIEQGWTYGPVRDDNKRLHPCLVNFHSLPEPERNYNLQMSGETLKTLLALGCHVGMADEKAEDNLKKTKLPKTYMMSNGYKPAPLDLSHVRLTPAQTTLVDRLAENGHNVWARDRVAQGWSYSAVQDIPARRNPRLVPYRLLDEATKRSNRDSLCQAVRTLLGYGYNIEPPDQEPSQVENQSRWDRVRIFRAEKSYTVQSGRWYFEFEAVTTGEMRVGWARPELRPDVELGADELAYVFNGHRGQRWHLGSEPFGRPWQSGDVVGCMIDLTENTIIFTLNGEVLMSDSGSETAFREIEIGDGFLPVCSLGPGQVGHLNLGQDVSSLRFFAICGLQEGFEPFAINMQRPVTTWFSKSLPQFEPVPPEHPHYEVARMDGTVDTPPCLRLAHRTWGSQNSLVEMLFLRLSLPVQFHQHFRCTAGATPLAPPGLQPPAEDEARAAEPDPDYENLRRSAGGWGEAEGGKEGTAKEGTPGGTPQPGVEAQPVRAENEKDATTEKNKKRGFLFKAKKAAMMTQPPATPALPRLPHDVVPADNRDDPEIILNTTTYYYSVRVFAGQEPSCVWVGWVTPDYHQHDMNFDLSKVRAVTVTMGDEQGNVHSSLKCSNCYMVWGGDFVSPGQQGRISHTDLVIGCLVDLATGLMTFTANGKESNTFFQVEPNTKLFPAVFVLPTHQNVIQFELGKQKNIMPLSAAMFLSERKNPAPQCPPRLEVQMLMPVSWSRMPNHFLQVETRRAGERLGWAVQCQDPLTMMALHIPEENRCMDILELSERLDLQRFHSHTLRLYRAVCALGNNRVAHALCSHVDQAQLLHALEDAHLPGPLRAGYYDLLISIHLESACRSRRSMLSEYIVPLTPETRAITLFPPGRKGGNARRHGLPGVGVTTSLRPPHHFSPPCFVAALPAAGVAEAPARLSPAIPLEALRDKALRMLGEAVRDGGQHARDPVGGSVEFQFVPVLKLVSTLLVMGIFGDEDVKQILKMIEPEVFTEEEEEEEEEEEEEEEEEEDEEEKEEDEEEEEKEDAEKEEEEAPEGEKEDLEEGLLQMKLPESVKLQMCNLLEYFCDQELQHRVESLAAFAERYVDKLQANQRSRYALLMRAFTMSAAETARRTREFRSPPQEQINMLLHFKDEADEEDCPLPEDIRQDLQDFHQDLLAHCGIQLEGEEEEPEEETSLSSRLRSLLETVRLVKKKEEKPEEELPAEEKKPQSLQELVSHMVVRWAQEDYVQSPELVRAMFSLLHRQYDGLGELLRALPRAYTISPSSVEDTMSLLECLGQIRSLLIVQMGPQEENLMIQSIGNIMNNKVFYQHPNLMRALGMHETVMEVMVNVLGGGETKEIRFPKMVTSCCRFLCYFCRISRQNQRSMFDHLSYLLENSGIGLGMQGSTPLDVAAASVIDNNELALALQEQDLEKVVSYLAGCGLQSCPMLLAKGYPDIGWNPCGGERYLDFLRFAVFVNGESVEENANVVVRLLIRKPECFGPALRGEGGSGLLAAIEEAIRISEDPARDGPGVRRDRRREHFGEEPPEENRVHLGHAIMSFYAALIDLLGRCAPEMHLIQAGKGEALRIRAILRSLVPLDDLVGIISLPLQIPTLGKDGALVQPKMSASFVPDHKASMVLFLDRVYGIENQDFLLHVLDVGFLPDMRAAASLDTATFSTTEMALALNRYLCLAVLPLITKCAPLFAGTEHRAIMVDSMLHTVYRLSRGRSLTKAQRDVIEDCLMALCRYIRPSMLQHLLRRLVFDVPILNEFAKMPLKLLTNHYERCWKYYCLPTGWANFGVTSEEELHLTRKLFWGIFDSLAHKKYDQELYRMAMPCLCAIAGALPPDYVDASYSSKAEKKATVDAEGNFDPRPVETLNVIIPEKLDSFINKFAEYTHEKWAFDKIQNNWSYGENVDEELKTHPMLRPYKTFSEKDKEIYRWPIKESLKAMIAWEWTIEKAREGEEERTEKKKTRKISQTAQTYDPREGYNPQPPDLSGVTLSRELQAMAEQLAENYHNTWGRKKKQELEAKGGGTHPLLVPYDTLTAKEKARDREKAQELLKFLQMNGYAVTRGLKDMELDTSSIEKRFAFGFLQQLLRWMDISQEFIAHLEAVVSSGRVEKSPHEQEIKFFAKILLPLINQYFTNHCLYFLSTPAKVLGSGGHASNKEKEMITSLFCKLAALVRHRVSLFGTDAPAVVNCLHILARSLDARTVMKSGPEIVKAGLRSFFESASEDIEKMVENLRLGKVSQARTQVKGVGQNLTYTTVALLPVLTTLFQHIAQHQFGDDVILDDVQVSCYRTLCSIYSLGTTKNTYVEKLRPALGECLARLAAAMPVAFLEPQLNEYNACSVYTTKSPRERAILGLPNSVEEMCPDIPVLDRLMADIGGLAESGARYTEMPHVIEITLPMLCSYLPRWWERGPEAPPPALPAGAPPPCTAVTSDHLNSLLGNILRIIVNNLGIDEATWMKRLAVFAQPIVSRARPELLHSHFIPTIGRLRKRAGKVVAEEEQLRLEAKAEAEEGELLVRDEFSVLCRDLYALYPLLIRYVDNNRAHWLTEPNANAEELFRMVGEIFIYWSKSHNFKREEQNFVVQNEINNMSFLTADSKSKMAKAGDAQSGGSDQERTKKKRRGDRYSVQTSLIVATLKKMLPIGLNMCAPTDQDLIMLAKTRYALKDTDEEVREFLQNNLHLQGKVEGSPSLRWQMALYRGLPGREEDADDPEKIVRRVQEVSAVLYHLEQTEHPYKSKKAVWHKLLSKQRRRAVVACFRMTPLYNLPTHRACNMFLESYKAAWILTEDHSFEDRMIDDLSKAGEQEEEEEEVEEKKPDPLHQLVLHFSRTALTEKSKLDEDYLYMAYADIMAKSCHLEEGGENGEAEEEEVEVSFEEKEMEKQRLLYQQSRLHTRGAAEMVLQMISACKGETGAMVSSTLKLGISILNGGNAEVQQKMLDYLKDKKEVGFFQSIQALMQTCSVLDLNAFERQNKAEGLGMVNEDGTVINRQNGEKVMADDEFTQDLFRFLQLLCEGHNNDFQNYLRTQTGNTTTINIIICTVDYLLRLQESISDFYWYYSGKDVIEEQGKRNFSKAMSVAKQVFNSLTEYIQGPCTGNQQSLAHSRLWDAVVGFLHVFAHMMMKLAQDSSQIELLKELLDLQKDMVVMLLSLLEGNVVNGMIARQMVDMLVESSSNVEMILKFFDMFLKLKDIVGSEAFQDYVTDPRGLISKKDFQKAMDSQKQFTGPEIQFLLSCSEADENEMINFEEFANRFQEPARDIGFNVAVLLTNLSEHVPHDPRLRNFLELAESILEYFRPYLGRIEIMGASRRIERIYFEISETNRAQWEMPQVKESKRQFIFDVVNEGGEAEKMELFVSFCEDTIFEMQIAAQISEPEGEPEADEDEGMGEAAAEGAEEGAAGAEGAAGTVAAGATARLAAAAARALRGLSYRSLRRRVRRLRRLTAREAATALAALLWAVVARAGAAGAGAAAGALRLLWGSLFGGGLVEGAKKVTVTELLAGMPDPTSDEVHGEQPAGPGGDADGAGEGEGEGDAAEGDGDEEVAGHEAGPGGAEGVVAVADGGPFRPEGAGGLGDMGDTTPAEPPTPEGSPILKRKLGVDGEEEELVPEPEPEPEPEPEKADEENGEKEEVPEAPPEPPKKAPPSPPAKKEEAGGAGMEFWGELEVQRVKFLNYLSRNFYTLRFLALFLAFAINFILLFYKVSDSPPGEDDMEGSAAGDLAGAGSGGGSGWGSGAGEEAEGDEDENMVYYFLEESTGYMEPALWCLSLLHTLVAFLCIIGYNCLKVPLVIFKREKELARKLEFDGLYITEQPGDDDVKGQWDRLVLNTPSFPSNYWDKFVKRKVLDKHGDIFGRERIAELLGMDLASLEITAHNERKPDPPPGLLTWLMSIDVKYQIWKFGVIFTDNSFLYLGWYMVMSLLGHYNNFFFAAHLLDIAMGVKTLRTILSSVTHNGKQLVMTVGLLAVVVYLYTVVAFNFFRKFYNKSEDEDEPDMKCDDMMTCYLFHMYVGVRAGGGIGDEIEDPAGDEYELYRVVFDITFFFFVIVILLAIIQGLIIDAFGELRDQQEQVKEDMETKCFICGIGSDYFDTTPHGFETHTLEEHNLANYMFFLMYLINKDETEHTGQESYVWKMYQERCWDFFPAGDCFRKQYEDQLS
Assay: intracellular calcium assay in HEK […] stable cell line; compared with M4000F
Type: cell-based
Design: full-length rabbit RyR1(WT)
metric_name: EC50 (µM)
Kindly provide the numeric value in µM only, without the unit symbol.

Dear colleague, I am looking for the recorded EC50 of the following compound: `Oc1ccc(Br)cc1` 4.7
